Tested on: colorectal cancer cell lines (e.g. DLD-1, HCT 116, SW620, HCT-15, HCT-8, RKO)
Experiment: Cell based assay, cell viability (CellTiter-Glo), colorectal cancer cell lines
Conditions: Homo sapiens, HCT-15, 72 hours treatment, read-out: IC50, colorectal cancer cell line HCT-15
Assign IC50 to each entry below.
Value expressed in µM; do not type the unit.

Can you share its IC50? I mean this compound: CC(=O)c1c([S+]([O-])Cc2ccccc2C#N)[nH]c2c(Br)ccc(Cl)c2c1=O (stereo not shown) [Compound 58]
1.1

Can you share its IC50? I mean this compound: COc1cc(C[S+]([O-])c2[nH]c3c(Br)ccc(Cl)c3c(=O)c2C(C)=O)cc(OC)c1 (stereo not shown) [Compound 59]
1.27

Can you share its IC50? I mean this compound: CC(=O)c1c([S+](C)[O-])n(C(=O)c2ccc(Br)cc2)c2c(Br)ccc(Cl)c2c1=O (stereo not shown) [Compound 9]
1.24

Can you share its IC50? I mean this compound: CC(=O)c1c([S+]([O-])Cc2cccc(S(F)(F)(F)(F)F)c2)[nH]c2c(Br)ccc(Cl)c2c1=O (stereo not shown) [Compound 77]
1.24

Can you share its IC50? I mean this compound: CC(=O)c1c([S+]([O-])Cc2cccc(F)c2)[nH]c2c(Br)ccc(Cl)c2c1=O (stereo not shown) [Compound 50]
1.59

Can you share its IC50? I mean this compound: CC(=O)c1c([S+]([O-])Cc2cc(Cl)ccc2Cl)[nH]c2c(Br)ccc(Cl)c2c1=O (stereo not shown) [Compound 44]
1.48

Can you share its IC50? I mean this compound: CC(=O)c1c([S+]([O-])Cc2ccc(S(F)(F)(F)(F)F)cc2)[nH]c2c(Br)ccc(Cl)c2c1=O (stereo not shown) [Compound 68]
0.98

Can you share its IC50? I mean this compound: CC(=O)c1c([S+]([O-])Cc2c(F)c(F)c(F)c(F)c2F)[nH]c2c(Br)ccc(Cl)c2c1=O (stereo not shown) [Compound 78]
1.59
